test system: human apolipoprotein B mRNA; assay: Inhibition of human apolipoprotein B mRNA levels in HepG2 cells, quantitative real-time PCR; assay type: cell-based; details: HepG2 cells; human apolipoprotein B mRNA; oligonucleotides targeting genomic sequence SEQ ID NO 334; averages from two experiments
In the oligonucleotide strings, read from the 5' end, every base follows the letter of its sugar. An asterisk marks phosphorothioate; unmarked linkages are phosphodiester. Other units and linkages are bracketed, terminal groups are in braces. A string of capitals states the bases alone. e = 2'-O-(2-methoxyethyl) (MOE); [5mC] = 5-methylcytosine; d = 2'-deoxy (DNA)

{"substance": "301199 (antisense eT*e[5mC]*eT*e[5mC]*e[5mC]*dA*dG*dA*dT*d[5mC]*d[5mC]*dT*dA*dA*d[5mC]*eA*eT*eA*eA*eA) [compound 301199]", "% INHIB": "19%"}
{"substance": "301176 (antisense eT*e[5mC]*eT*eG*eG*dA*dG*dG*d[5mC]*dT*d[5mC]*dA*dG*dA*dA*eA*e[5mC]*eA*eT*eG) [compound 301176]", "% INHIB": "57%"}
{"substance": "301051 (eG*eA*eT*eG*e[5mC]*d[5mC]*dT*dT*dA*d[5mC]*dT*dT*dG*dG*dA*e[5mC]*eA*eG*eA*e[5mC]; antisense) [compound 301051]", "% INHIB": "27%"}
{"substance": "301174 (antisense eG*eT*eG*e[5mC]*e[5mC]*dA*dT*dG*d[5mC]*dT*dA*dG*dG*dT*dG*eG*e[5mC]*e[5mC]*eA*eT) [compound 301174]", "% INHIB": "37%"}
{"substance": "301187 (antisense eG*e[5mC]*eT*e[5mC]*eT*d[5mC]*dT*d[5mC]*dT*dG*d[5mC]*d[5mC]*dA*d[5mC]*dT*e[5mC]*eT*eG*eA*eT) [compound 301187]", "% INHIB": "47%"}
